# assay: Differential scanning fluorimetry (DSF) melting temperature
# Assay type: physicochemical
# test-conditions: thermostability by DSF; Table 26
recorded-metric: TM (° C.) (°C)
The figure you give is taken to be in °C; do not add the unit.

Input: Consider the molecule Ab1020: anti-EpCAM binding domain, FIGS. 8A-8C (antibody, V domains shown) VH: EVQLVESGGGLVQPGGSLRLSCAASGFTFSNYWMHWVRQAPGKGLEWVAQIRVKSENFATHYADSVKGRFTISRDDSKSTVYLQMNSLRAEDTAVYYCTLYDGFSWGQGTLVTVSS VL: DIQMTQSPSSLSASVGDRVTITCSASSSVSSGNFHWYQQKPGKAPKLLIYRTSNLASGVPSRFSGSGSGTDYTLTISSLQPEDFATYYCQQWSGYPYTFGQGTKVEIK and give its measured TM (° C.).
Output: 68

Input: Report TM (° C.) for Ab1024: anti-EpCAM binding domain, FIGS. 8A-8C (antibody, V domains shown) VH: EVQLVESGGGLVQPGGSLRLSCAASGFTFSNYWMNWVRQAPGKGLEWVAQIRVKSENFATHYVDSVKGRFTISRDDSKSTVYLQMNSLRAEDTAVYYCTLYDGFSWGQGTLVTVSS VL: DIQMTQSPSSLSASVGDRVTITCSASSSVSSGNFHWYQQKPGKAPKLLIYRTSNLASGVPSRFSGSGSGTDYTLTISSLQPEDFATYYCQQWSGYPYTFGQGTKVEIK please.
Output: 73.2

Input: TM (° C.) lookup needed for Ab1018: anti-EpCAM binding domain, FIGS. 8A-8C (antibody, V domains shown) VH: EVQLVESGGGLVQPGGSLRLSCAASGFTFSNYWMNWVRQAPGKGLEWVAQIRVKSENFATHYADSVKGRFTISRDDSKSTVYLQMNSLRAEDTAVYYCTLYEGFSWGQGTLVTVSS VL: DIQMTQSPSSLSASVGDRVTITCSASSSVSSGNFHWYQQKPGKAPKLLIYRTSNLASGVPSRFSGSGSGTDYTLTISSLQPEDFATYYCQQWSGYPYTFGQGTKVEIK , thanks.
Output: 69.9

Input: Consider the molecule Ab1022: anti-EpCAM binding domain, FIGS. 8A-8C (antibody, V domains shown) VH: EVQLVESGGGLVQPGGSLRLSCAASGFTFSNYWMNWVRQHPGKGLEWVAQIRVKSENFATHYADSVKGRFTISRDDSKSTVYLQMNSLRAEDTAVYYCTLYDGFSWGQGTLVTVSS VL: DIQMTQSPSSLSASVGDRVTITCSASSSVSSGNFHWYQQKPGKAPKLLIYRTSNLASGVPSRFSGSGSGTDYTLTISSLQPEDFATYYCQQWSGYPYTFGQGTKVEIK and give its measured TM (° C.).
Output: 69.6

Input: Sample Ab1065 (antibody, V domains shown) VH: EVQLVESGGGLVQPGGSLRLSCAASGFTFSNYWMNWVRQAPGKGLEWVAQIRVKSENFATHYADSVKGRFTISRDDSKSTVYLQMNSLRAEDTAVYYCTLYEGFSWGQGTLVTVSS VL: DIQMTQSPSSLSASVGDRVTITCSASSSVSSGNFHWYQQKPGKAPKLLIYRTSNLASGVPSRFSGSGSGTDYTLTISSLQPEDFATYYCQQASGYPYTFGQGTKVEIK — what was its TM (° C.)?
Output: 72.3

Input: If you can, please state the reported TM (° C.) value of Ab1026: anti-EpCAM binding domain, FIGS. 8A-8C (antibody, V domains shown) VH: EVQLVESGGGLVQPGGSLRLSCAASGFTFSNYWMNWVRQAPGKGLEWVAQIRVKSENFATHYADSVKGRFTISRDDSKSTVYLQMNSLRAEDTAVYYCTLYDGFSWGQGTLVTVSS VL: DIQMTQSPSSLSASVGDRVTITCSASSSVSSGNFHWYQQKPGKAPKLLIYRTSNLASGVPSRFSGSGSGTDYTLTISSLQPEDFATYYCQQASGYPYTFGQGTKVEIK .
Output: 69.1
